Tested on: Fibroblast
TEST DETAILS: Multiplex assay against human fibroblast
Format: toxicity, cell-based
TEST PARAMETERS: 48 h, 1 µM, compound concentration 1 uM, replicate 1
So basically: Population Membrane Permeable-Phenotype (%) at 20% or higher? That is Y. Lower than 20%? That is N.

Please review the following examples before continuing.
### Prompt State whether the measured Population Membrane Permeable-Phenotype (%) reaches 20%, counting equality as reaching it, for C[C@@H](NCCCc1cccc(C(F)(F)F)c1)c1cccc2ccccc12.Cl [CINACALCET HYDROCHLORIDE]
### Response N

### Prompt State whether the measured Population Membrane Permeable-Phenotype (%) reaches 20%, counting equality as reaching it, for C=CC(=O)Nc1cccc(C(=O)Nc2ccc(Nc3cc(-c4[nH]c(SC)nc4C)ccn3)cc2)c1
### Response Y

### Prompt State whether the measured Population Membrane Permeable-Phenotype (%) reaches 20%, counting equality as reaching it, for C=CC(=O)Nc1ccc2ncnc(Nc3ccc(OCc4cccc(F)c4)c(Cl)c3)c2c1.Cc1ccc(S(=O)(=O)O)cc1
### Response Y

### Prompt State whether the measured Population Membrane Permeable-Phenotype (%) reaches 20%, counting equality as reaching it, for Cn1cc(-c2[nH]c3cc(NC(=O)[C@H](N)C4CCCCC4)cc4c3c2C=NNC4=O)cn1
### Response Y

### Prompt State whether the measured Population Membrane Permeable-Phenotype (%) reaches 20%, counting equality as reaching it, for Cc1[nH]c(/C=C2\C(=O)Nc3ccc(S(=O)(=O)N(C)c4cccc(Cl)c4)cc32)c(C)c1C(=O)N1CCN(C)CC1
### Response N

More entries:
### Prompt State whether the measured Population Membrane Permeable-Phenotype (%) reaches 20%, counting equality as reaching it, for Cc1csc2c(N[C@@H](C)CN3CCN(S(=O)(=O)c4ccc(Cl)c(Cl)c4)CC3)ncnc12
### Response Y

### Prompt State whether the measured Population Membrane Permeable-Phenotype (%) reaches 20%, counting equality as reaching it, for CN1CCC[C@@H]1CCO[C@](C)(c1ccccc1)c1ccc(Cl)cc1.O=C(O)/C=C/C(=O)O [CLEMASTINE FUMARATE]
### Response Y

### Prompt State whether the measured Population Membrane Permeable-Phenotype (%) reaches 20%, counting equality as reaching it, for Cc1c(-c2ccc(O)cc2)n(Cc2ccc(OCCN3CCCCCC3)cc2)c2ccc(O)cc12
### Response Y

### Prompt State whether the measured Population Membrane Permeable-Phenotype (%) reaches 20%, counting equality as reaching it, for CN1CCCC(n2nc(Cc3ccc(Cl)cc3)c3ccccc3c2=O)CC1.Cl (stereo unspecified) [AZELASTINE HYDROCHLORIDE]
### Response Y

### Prompt State whether the measured Population Membrane Permeable-Phenotype (%) reaches 20%, counting equality as reaching it, for COc1cccc([C@@H](C)NCCCc2ccccc2Cl)c1.Cl [TECALCET HYDROCHLORIDE]
### Response N

### Prompt State whether the measured Population Membrane Permeable-Phenotype (%) reaches 20%, counting equality as reaching it, for CN1CCN(c2ccc(OC(F)(F)F)c(Nc3ncc4c(n3)-c3c(c(C(N)=O)nn3CCO)CC4)c2)CC1
### Response Y

### Prompt State whether the measured Population Membrane Permeable-Phenotype (%) reaches 20%, counting equality as reaching it, for CC(C)NCC(O)COc1ccc(CCOCC2CC2)cc1.Cl (stereo unspecified) [BETAXOLOL HYDROCHLORIDE]
### Response Y

### Prompt State whether the measured Population Membrane Permeable-Phenotype (%) reaches 20%, counting equality as reaching it, for COc1cc(-n2cnc3cc(-c4ccc(Cl)cc4)sc3c2=O)ccc1OCCN1CCCC1
### Response N

### Prompt State whether the measured Population Membrane Permeable-Phenotype (%) reaches 20%, counting equality as reaching it, for CN(C)C(=O)/C(C#N)=C/c1ccc(-c2nc3cnc4[nH]ccc4c3n2C2CCCCC2)o1
### Response Y

### Prompt State whether the measured Population Membrane Permeable-Phenotype (%) reaches 20%, counting equality as reaching it, for CC(C)(O)CNc1ncc(-c2ccnc(Nc3ccnc(Cl)c3)n2)c(CC2CC2)n1
### Response Y
